Values compiled from ChEMBL document CHEMBL1649091.

system: Coagulation factor X (Homo sapiens) (UniProt P00742)
Sequence (P00742 41-179 limits assumed): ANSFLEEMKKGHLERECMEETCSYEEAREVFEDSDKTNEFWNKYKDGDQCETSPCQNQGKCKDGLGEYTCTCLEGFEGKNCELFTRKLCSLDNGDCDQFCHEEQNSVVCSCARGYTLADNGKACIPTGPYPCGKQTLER
Sequence (P00742 235-488 limits assumed): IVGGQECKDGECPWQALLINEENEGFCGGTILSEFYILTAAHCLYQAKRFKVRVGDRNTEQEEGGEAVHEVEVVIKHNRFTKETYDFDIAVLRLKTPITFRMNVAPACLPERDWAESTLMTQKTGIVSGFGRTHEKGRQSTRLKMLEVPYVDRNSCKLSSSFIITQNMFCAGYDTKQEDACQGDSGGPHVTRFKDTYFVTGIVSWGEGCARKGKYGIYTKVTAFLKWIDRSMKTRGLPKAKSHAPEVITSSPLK
test summary: Inhibition of human factor 10a assessed as 125 x 10^-6M chromogenic TH substrate hydrolysis at 1 x 10^-3M
Active and inactive are the calls of the source. The calls are words filed in the database; no cut-off is given here.
parameter: inhibition

COc1ccc(-c2cc(=O)c3c(O)cc(O[C@@H]4O[C@H](CO[C@@H]5O[C@@H](C)[C@H](OS(=O)(=O)O)[C@@H](OS(=O)(=O)O)[C@H]5OS(=O)(=O)O)[C@@H](OS(=O)(=O)O)[C@H](OS(=O)(=O)O)[C@H]4OS(=O)(=O)O)cc3o2)cc1O	inactive
C[C@H]1O[C@@H](OC[C@@H]2O[C@H](Oc3c(-c4ccc(OCCOS(=O)(=O)O)c(OCCOS(=O)(=O)O)c4)oc4cc(OCCOS(=O)(=O)O)cc(O)c4c3=O)[C@@H](OS(=O)(=O)O)[C@H](OS(=O)(=O)O)[C@H]2OS(=O)(=O)O)[C@@H](OS(=O)(=O)O)[C@@H](OS(=O)(=O)O)[C@@H]1OS(=O)(=O)O	38.8%
C[C@H]1O[C@@H](OC[C@@H]2O[C@H](Oc3c(-c4ccc(OS(=O)(=O)O)c(OS(=O)(=O)O)c4)oc4cc(OS(=O)(=O)O)cc(OS(=O)(=O)O)c4c3=O)[C@@H](OS(=O)(=O)O)[C@H](OS(=O)(=O)O)[C@H]2OS(=O)(=O)O)[C@@H](OS(=O)(=O)O)[C@@H](OS(=O)(=O)O)[C@@H]1OS(=O)(=O)O	32%
COc1ccc([C@@H]2CC(=O)c3c(O)cc(O[C@@H]4O[C@H](CO[C@@H]5O[C@@H](C)[C@H](OS(=O)(=O)O)[C@@H](OS(=O)(=O)O)[C@H]5OS(=O)(=O)O)[C@@H](OS(=O)(=O)O)[C@H](OS(=O)(=O)O)[C@H]4OS(=O)(=O)O)cc3O2)cc1O	inactive
